Just for reference, patent US20250163162A1 is where these values come from.

Biological target: T1, IL10Rα and IL2Rγ on human primary cells (CD8 T cells, CD4 T cells, monocytes) (human) (UniProt Q13651)
T1 sequence (looked up) 1: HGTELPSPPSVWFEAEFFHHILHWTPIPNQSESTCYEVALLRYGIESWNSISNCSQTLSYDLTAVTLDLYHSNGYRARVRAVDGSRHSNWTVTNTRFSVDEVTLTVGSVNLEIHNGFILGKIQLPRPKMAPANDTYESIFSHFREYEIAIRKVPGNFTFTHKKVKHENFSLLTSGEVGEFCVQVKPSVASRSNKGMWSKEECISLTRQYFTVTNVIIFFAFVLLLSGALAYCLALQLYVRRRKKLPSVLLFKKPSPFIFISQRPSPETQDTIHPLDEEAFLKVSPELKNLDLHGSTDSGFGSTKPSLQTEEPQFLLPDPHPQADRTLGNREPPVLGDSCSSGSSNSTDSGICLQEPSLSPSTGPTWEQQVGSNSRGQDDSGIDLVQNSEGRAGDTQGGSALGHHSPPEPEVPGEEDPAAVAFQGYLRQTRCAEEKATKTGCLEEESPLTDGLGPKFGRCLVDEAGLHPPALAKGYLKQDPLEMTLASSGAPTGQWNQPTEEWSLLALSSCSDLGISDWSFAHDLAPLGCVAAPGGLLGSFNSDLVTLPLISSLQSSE
T1 sequence (looked up) 2: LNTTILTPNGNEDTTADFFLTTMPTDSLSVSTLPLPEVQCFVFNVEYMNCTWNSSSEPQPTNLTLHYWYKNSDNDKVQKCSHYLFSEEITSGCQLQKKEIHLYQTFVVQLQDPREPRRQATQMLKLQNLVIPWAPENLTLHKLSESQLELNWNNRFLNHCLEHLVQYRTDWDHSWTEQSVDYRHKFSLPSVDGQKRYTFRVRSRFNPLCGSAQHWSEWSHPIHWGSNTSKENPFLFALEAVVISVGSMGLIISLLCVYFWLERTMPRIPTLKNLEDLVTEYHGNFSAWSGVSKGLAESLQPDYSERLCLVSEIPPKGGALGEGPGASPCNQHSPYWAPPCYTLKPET
Assay: cell-based or functional assay
Field: pSTAT3 (MFI) in monocytes at 0.01 µM. Provide a value for each of the binders that follow.
Note: unit MFI is implicit; provide only the numeric part.

**Query** Look up pSTAT3 (MFI) in monocytes at 0.01 µM of hIL10Ra_VHH14-hIL2Rg_VHH19, linker GS, tag his (bispecific antibody, not shown: small tags and cut ends) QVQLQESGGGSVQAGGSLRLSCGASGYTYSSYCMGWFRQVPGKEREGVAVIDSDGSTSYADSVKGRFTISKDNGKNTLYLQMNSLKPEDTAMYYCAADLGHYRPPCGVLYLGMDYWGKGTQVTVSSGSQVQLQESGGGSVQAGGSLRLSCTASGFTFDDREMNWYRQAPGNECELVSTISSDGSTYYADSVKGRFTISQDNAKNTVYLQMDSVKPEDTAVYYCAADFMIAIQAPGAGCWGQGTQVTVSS and report it.
**Result** 4010

**Query** Report pSTAT3 (MFI) in monocytes at 0.01 µM for hIL10Ra_VHH14-hIL2Rg_VHH19, linker …, tag his (bispecific antibody, not shown: small tags and cut ends) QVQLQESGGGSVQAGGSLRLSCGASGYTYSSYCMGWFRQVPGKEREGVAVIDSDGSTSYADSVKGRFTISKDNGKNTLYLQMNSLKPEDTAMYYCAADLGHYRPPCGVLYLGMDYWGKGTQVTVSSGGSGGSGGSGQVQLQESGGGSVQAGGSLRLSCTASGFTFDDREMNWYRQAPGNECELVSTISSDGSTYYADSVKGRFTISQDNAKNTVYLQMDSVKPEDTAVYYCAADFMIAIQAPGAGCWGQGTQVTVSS
**Result** 4700
